Ref: paper PMC8002023

Molecular target: KV10.1 (Homo sapiens)
Construct: expressed in transfected cells
Sequence (O95259 1-962 isoform O95259-2): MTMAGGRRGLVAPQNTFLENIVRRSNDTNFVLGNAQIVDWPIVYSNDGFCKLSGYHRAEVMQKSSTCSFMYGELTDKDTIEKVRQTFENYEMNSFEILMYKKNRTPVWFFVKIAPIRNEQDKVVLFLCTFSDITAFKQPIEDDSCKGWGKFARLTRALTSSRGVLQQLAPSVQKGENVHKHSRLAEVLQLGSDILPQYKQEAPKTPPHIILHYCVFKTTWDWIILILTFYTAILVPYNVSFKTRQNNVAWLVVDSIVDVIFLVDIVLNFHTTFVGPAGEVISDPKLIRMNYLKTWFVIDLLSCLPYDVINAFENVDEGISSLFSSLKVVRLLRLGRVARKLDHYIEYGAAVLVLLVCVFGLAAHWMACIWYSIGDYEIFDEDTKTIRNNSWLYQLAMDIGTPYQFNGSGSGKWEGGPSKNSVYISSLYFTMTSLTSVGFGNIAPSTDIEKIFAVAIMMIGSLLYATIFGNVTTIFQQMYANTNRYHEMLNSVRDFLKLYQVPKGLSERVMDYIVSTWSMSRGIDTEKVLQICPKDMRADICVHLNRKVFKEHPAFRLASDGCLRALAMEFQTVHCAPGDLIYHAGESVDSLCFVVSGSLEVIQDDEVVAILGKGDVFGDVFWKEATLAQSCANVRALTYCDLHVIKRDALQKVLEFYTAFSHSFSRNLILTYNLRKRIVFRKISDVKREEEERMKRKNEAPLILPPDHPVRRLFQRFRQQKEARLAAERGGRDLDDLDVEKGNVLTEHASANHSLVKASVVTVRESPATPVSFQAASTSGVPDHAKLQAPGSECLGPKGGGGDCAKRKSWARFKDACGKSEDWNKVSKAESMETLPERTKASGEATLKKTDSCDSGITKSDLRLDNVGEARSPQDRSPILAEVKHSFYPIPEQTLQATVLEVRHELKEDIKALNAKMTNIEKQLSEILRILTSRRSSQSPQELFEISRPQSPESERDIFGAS
Experiment: Whole-cell patch clamp on HEK-293 cells stably expressing KV10.1
Type: cell-based
Conditions: HEK293; compound concentration 50 μM; stimuli to +40 mV; mean ± standard error; read-out: Effect on Kv10.1 (% Inhibition)
measurementName: inhibition at 50 µM (%)

[1] O=C(CCN1CCOCC1)Nc1ccc(S(=O)(=O)Nc2cc(Cl)cc(Cl)c2)cc1 [ZVS-04]
[2] CN(C)Cc1cncc(C2CCCN2C(=O)c2ccc3c(c2)CCC3)n1 (stereo not shown) [ZVS-09]
[3] CN1CCN(c2cc(CNC(=O)Cc3noc4ccccc34)ccn2)CC1 [ZVS-05]
[4] COc1ccc(F)cc1C(=O)NCc1cnc(C2CCN(C)C2)[nH]1 (stereo not shown) [ZVS-07]
QUERY: Number of compounds to sort: 4. Sort criterion: inhibition at 50 µM, ascending. Form field (ranking): labels in requested order.
RESULT: 1, 2, 4, 3
